Could you please report measured viability at 24 h, 2.5 ug/ml for the items listed next?
assay: Cytotoxicity against mouse BV-2 cells assessed as survival rate at 2.5 ug/ml incubated for 24 hrs by MTT assay; format: toxicity, cell-based; settings: at 2.5 µg/mL, read-out: Activity
Quick note: give the figure in %, leave out the unit.

Report measured viability at 24 h, 2.5 ug/ml; entry is `COc1cccc(/C=C2\CCc3ccc(F)cc3C2=O)n1`
85.8

Report measured viability at 24 h, 2.5 ug/ml; entry is `COc1cc(/C=C2\CCc3ccc(F)cc3C2=O)cc(OC)c1`
87.8

Report measured viability at 24 h, 2.5 ug/ml; entry is `COc1ccc(/C=C2\CCc3ccc(F)cc3C2=O)cc1C(F)(F)F`
94.7

Report measured viability at 24 h, 2.5 ug/ml; entry is `COc1cncc(/C=C2\CCc3ccc(OC)cc3C2=O)c1`
92.3

Report measured viability at 24 h, 2.5 ug/ml; entry is `COc1cc(/C=C2\CCc3ccc(Br)cc3C2=O)cc(OC)c1OC`
93.5

Report measured viability at 24 h, 2.5 ug/ml; entry is `COc1cccc(/C=C2\CCc3ccc(Br)cc3C2=O)n1`
94.7

Report measured viability at 24 h, 2.5 ug/ml; entry is `COc1ccc2c(c1)C(=O)/C(=C/c1ccc(OC)c(C(F)(F)F)c1)CC2`
94.4

Report measured viability at 24 h, 2.5 ug/ml; entry is `COc1ccc2c(c1)-c1nc(N)nc(-c3ccc(OC)c(C(F)(F)F)c3)c1CC2`
90.3

Report measured viability at 24 h, 2.5 ug/ml; entry is `COc1ccc2c(c1)C(=O)/C(=C/c1ccc(OC)nc1)CC2`
93.1

Report measured viability at 24 h, 2.5 ug/ml; entry is `COc1ccc(/C=C2\CCc3ccc(Br)cc3C2=O)cn1`
89.5

Report measured viability at 24 h, 2.5 ug/ml; entry is `COc1cncc(-c2nc(N)nc3c2CCc2ccc(F)cc2-3)c1`
97.4

Report measured viability at 24 h, 2.5 ug/ml; entry is `COc1cncc(-c2nc(N)nc3c2CCc2ccc(OC)cc2-3)c1`
94.7

Report measured viability at 24 h, 2.5 ug/ml; entry is `COc1ccc2c(c1)-c1nc(N)nc(-c3cccc(OC)n3)c1CC2`
94.8

Report measured viability at 24 h, 2.5 ug/ml; entry is `COc1cc(OC)cc(-c2nc(N)nc3c2CCc2ccc(F)cc2-3)c1`
95.4

Report measured viability at 24 h, 2.5 ug/ml; entry is `COc1cncc(/C=C2\CCc3ccc(Br)cc3C2=O)c1`
94.9

Report measured viability at 24 h, 2.5 ug/ml; entry is `COc1ccc(-c2nc(N)nc3c2CCc2ccc(Br)cc2-3)cn1`
95.4

Report measured viability at 24 h, 2.5 ug/ml; entry is `COc1ccc2c(c1)-c1nc(N)nc(-c3ccc(OC)nc3)c1CC2`
87.5

Report measured viability at 24 h, 2.5 ug/ml; entry is `COc1ccc2c(c1)C(=O)/C(=C/c1ccc(OC)cc1C(F)(F)F)CC2`
88.3

Report measured viability at 24 h, 2.5 ug/ml; entry is `COc1cccc(-c2nc(N)nc3c2CCc2ccc(F)cc2-3)c1`
95

Report measured viability at 24 h, 2.5 ug/ml; entry is `COc1ccc(-c2nc(N)nc3c2CCc2ccc(F)cc2-3)cc1C(F)(F)F`
91

Report measured viability at 24 h, 2.5 ug/ml; entry is `COc1ccc(/C=C2\CCc3ccc(F)cc3C2=O)cn1`
92.7

Report measured viability at 24 h, 2.5 ug/ml; entry is `COc1cncc(/C=C2\CCc3ccc(F)cc3C2=O)c1`
94.4

Report measured viability at 24 h, 2.5 ug/ml; entry is `COc1cc(-c2nc(N)nc3c2CCc2ccc(Br)cc2-3)cc(OC)c1OC`
93.1

* * *

experiment: Cytotoxicity against mouse BV-2 cells assessed as survival rate at 2.5 ug/ml incubated for 24 hrs by MTT assay; assay type: toxicity, cell-based; conditions: at 2.5 µg/mL, read-out: Activity
Could you please report measured viability at 24 h, 2.5 ug/ml for the items listed next?

Report measured viability at 24 h, 2.5 ug/ml; entry is `COc1cncc(-c2nc(N)nc3c2CCc2ccc(Br)cc2-3)c1`
93.2%

Report measured viability at 24 h, 2.5 ug/ml; entry is `COc1cccc(/C=C2\CCc3ccc(F)cc3C2=O)c1`
90.3%

Report measured viability at 24 h, 2.5 ug/ml; entry is `COc1cccc(-c2nc(N)nc3c2CCc2ccc(Br)cc2-3)n1`
88.9%

Report measured viability at 24 h, 2.5 ug/ml; entry is `COc1ccc2c(c1)C(=O)/C(=C/c1cccc(OC)n1)CC2`
90.4%

* * *

system: BV-2; test: Anti-neuroinflammatory activity in mouse BV-2 cells assessed as inhibition of LPS-stimulated TNF-alpha production at 2.5 ug/ml measured after 24 hrs by ELISA; format: functional; set-up: scale not given: the % may be the effect or the level left; conditions: dose 2.5 µg/ml
Could you please report measured Activity for the items listed next?
State the value, then name its unit.

Give reported Activity for `COc1ccc(-c2nc(N)nc3c2CCc2ccc(F)cc2-3)cn1` (BV-2)
43.3%

Give reported Activity for `COc1ccc2c(c1)C(=O)/C(=C/c1cccc(OC)n1)CC2` (BV-2)
40.6%

Give reported Activity for `COc1cncc(-c2nc(N)nc3c2CCc2ccc(Br)cc2-3)c1` (BV-2)
49.4%

Give reported Activity for `COc1ccc2c(c1)C(=O)/C(=C/c1ccc(OC)cc1C(F)(F)F)CC2` (BV-2)
40%

Give reported Activity for `COc1cccc(/C=C2\CCc3ccc(Br)cc3C2=O)n1` (BV-2)
31.9%

Give reported Activity for `COc1cccc(/C=C2\CCc3ccc(F)cc3C2=O)n1` (BV-2)
41.7%

Give reported Activity for `COc1ccc2c(c1)-c1nc(N)nc(-c3ccc(OC)nc3)c1CC2` (BV-2)
42.7%

Give reported Activity for `COc1cccc(-c2nc(N)nc3c2CCc2ccc(F)cc2-3)c1` (BV-2)
53.8%

Give reported Activity for `COc1cc(/C=C2\CCc3ccc(F)cc3C2=O)cc(OC)c1` (BV-2)
40.8%
